# study-system: Acetylcholinesterase (Electrophorus electricus, UniProt O42275)
# Sequence (O42275 whole entry): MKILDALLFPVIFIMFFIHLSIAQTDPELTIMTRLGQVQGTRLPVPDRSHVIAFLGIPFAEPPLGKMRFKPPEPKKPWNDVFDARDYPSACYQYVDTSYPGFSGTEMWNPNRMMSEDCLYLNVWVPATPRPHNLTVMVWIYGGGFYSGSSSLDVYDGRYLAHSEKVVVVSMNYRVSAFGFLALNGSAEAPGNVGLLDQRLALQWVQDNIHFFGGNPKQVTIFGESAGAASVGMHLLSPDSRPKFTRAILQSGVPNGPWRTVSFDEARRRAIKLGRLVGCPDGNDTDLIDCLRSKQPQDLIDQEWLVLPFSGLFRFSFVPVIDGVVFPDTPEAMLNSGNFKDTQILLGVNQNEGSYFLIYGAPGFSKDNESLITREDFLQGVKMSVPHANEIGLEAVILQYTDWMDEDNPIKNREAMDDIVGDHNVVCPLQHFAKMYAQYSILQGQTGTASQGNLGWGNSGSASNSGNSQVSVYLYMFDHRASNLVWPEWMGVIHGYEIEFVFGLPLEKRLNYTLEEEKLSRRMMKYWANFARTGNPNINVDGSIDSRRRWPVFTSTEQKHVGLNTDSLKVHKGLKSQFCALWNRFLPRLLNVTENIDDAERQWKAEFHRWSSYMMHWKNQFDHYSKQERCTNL
Flag rule - IC50 less than 20 nM flags satisfied; the remaining entries get not satisfied.

Reference set (10 entries):
O=C1Nc2ccccc2/C1=C\c1cc[n+](Cc2ccc(Br)cc2)cc1    not satisfied
O=C1Nc2ccccc2/C1=C\c1cc[n+](Cc2ccc(Cl)cc2)cc1    not satisfied
Cc1ccccc1C[n+]1ccc(/C=C2/C(=O)Nc3ccccc32)cc1    satisfied
Cc1cccc(C[n+]2ccc(/C=C3/C(=O)Nc4ccccc43)cc2)c1    satisfied
O=C1Nc2ccccc2/C1=C\c1cc[n+](Cc2cccc(Br)c2)cc1    satisfied
O=C1Nc2ccccc2/C1=C\c1cc[n+](Cc2ccccc2)cc1    not satisfied
O=C1Nc2ccccc2/C1=C\c1cc[n+](Cc2ccccc2F)cc1    satisfied
O=C1Nc2ccccc2/C1=C\c1cc[n+](Cc2ccccc2Cl)cc1    satisfied
O=C1Nc2ccccc2/C1=C\c1cc[n+](Cc2cccc(F)c2)cc1    satisfied
O=C1Nc2ccccc2/C1=C\c1cc[n+](Cc2c(Cl)cccc2Cl)cc1    satisfied

# strict comparison: is reported IC50 < 20 nM? input = `O=C1Nc2ccccc2/C1=C\c1cc[n+](Cc2cccc(Cl)c2)cc1`
satisfied

# strict comparison: is reported IC50 < 20 nM? input = `O=C1Nc2ccccc2/C1=C\c1cc[n+](Cc2ccc(CCl)cc2)cc1`
not satisfied

# strict comparison: is reported IC50 < 20 nM? input = `COc1cccc(C[n+]2ccc(/C=C3/C(=O)Nc4ccccc43)cc2)c1`
satisfied

* * *

# run-description: Selectivity index, ratio of IC50 for equine serum BuChE to IC50 for electric eel AChE
Catalogue of compounds with associated Ratio IC50
Please state the value as a number alone, without comment.

Example entries begin here.
O=C1Nc2ccccc2/C1=C\c1cc[n+](Cc2ccc(Br)cc2)cc1    2.9
O=C1Nc2ccccc2/C1=C\c1cc[n+](Cc2ccccc2Br)cc1    842
O=C1Nc2ccccc2/C1=C\c1cc[n+](Cc2ccccc2)cc1    91.3
O=C1Nc2ccccc2/C1=C\c1cc[n+](Cc2ccc(Cl)cc2)cc1    3.73
Cc1ccccc1C[n+]1ccc(/C=C2/C(=O)Nc3ccccc32)cc1    57.9
O=C1Nc2ccccc2/C1=C\c1cc[n+](Cc2c(F)cccc2Cl)cc1    488
COc1cccc(C[n+]2ccc(/C=C3/C(=O)Nc4ccccc43)cc2)c1    424
COc1ccc(C[n+]2ccc(/C=C3/C(=O)Nc4ccccc43)cc2)cc1    11.7
O=C1Nc2ccccc2/C1=C\c1cc[n+](Cc2c(Cl)cccc2Cl)cc1    88.2
O=C1Nc2ccccc2/C1=C\c1cc[n+](Cc2cccc(Cl)c2)cc1    276

Ratio IC50 recorded for this compound, `O=C1Nc2ccccc2/C1=C\c1cc[n+](Cc2ccc(Cl)cc2Cl)cc1` , is 9.7

Ratio IC50 recorded for this compound, `O=C1Nc2ccccc2/C1=C\c1cc[n+](Cc2cccc(Br)c2)cc1` , is 169
